# TESTED_SYSTEM: Phosphodiesterase 3 (Homo sapiens, UniProt Q14432+Q13370)
# METHOD: Inhibition of Phosphodiesterase 3 from rabbit platelets
# Parameters: species or system Oryctolagus cuniculus
# DETAILS: target entry is the homologue from another species
ENDPOINT_NAME: IC50 (µM)

Example results:
>>> data_value("CCCc1nn(C)c2c(=O)[nH]c(-c3cc(S(=O)(=O)N4CCN(CCO)CC4)ccc3OCC)nc12 [LODENAFIL]")
62
>>> data_value("CCCc1nn(C)c2c(=O)[nH]c(-c3ccccc3NS(C)(=O)=O)nc12")
83

I = CCCc1n[nH]c2c(=O)[nH]c(-c3ccccc3)nc12
II = CCCc1nn(C)c2c(O)nc(-c3cc(S(=O)(=O)N4CCN(C(N)=O)CC4)ccc3OCC)nc12
Looking at I and II , which one comes out lower in IC50 terms? Your answer should be the label of the entry you select. II
(II: 34 µM, I: 63 µM)
